- MEASURED TARGET: human TYK2 catalytic kinase (JH1) domain (Homo sapiens (Human), UniProt P29597)
- Sequence (P29597 897-1176): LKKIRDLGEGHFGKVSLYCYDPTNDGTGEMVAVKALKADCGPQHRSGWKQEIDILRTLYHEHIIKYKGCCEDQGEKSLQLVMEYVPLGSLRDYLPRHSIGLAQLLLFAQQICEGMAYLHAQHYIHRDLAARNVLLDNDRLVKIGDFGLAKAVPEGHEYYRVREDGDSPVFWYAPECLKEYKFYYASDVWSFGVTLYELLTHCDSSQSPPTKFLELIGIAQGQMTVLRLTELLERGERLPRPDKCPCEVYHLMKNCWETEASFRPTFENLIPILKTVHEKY
- ASSAY PROTOCOL: ADP-Glo Kinase Assay, recombinant TYK2 catalytic kinase (JH1) domain
- Type: biochemical
- ASSAY CONDITIONS: recombinant JH1 domain 2 nM, 10 μM ATP, JAK3-974 peptide, mean, read-out: TYK2 biochem IC50 (nM) Mean
REPORTED METRIC: IC50 (nM)

molecule="Cn1cc(-c2cc3c(N4CC5CCC(C4)N5C(=O)[C@@H]4C[C@@H]4F)ncnn3c2)cn1 [Example 80]" reported_metric=IC50 units_text=nM meas_value=483
molecule="Cn1ncc(-c2cc3c(N4CC5CCC(C4)N5C(=O)[C@@H]4C[C@H]4F)ccnn3c2)c1F [Example 133]" reported_metric=IC50 units_text=nM meas_value=6
molecule="O=C([C@H]1C[C@@H]1F)N1C2CCC1CN(c1ncnn3cc(-c4cnn(C(F)F)c4)cc13)C2 (single isomer, unassigned) [Example 75]" reported_metric=IC50 units_text=nM meas_value=456
molecule="O=C([C@@H]1C[C@H]1F)N1C2CCC1CN(c1ccnc3[nH]c(C4CCC4)nc13)C2 [Example 209]" reported_metric=IC50 units_text=nM meas_value=358
